Tested on: P-388
Assay: Prolongation of life span in P-388 implanted mice
Type: in vivo, CDF mouse
Details: cured mice per group of 6; dosage 25 mg/kg
measured.attribute: cure

response.value for COc1cc(NS(C)(=O)=O)ccc1Nc1c2cccc(C)c2nc2c1[nH]c1cc(C)ccc12 (field: cure) = 2/6

// cure value for COc1cc(NS(C)(=O)=O)ccc1Nc1c2ccccc2nc2c1[nH]c1ccc(NC3OC(COC(C)=O)C(OC(C)=O)C(OC(C)=O)C3OC(C)=O)cc12 (stereo not shown) : 1/6

Reported cure ( COc1cc(NS(C)(=O)=O)ccc1Nc1c2cccc(C)c2nc2c1[nH]c1ccccc12 ) = 1/6

cure measured on COc1cc(NS(C)(=O)=O)ccc1Nc1c2ccccc2nc2c1[nH]c1ccc(Cl)cc12 = 1/6
